Reference for the values: the DeepSol protein solubility set

assayMethodText: soluble on expression in E. coli; label from the status in PepcDB or PDB records
readoutKind: soluble on expression in E. coli

sequenceString	result
MDQVVVFQKMFEQVRKEQNFSWFYSELKHHRIAHYIYYLATDNIRIITHDDTVLLLRGTRNLLKVSTTKNPAKIKEAALLHICGKSTFREYCSTLAGAGVFRWVTDVNHNKRSYYAIDNTLLYIEDVENNKPLILEHHHHHH	soluble
GMFVWHEYENAAEAAQSLADAVADALQGALDEKGGAVLAVSGGRSPIAFFNALSQKDLDWKNVGITLADERIVPTNHADSNTGLVREYLLKNKAAAAVWIPMVEDGKTETELHPDAVVDYALKHYKQPDVLILGMGNDGHTASIFPKAPQFQTAIDGSAGVALVHTTPVTAPHERISMTLDAIAHTGHVFLAIQGEEKKAVFDQAAQGENREYPISLVLNHQGVNCHVFYAE	soluble
MSTNLNIEVSINLTEIDVNAQLAEFARFQQVRDDSRYAQDVEREFVLGPIRHHRRQLEPSRSAPLASTEQPVAQATTHPSTENARVPALVLRSGSWRALPVAQGGSSHIRIWPVSRSATTTSTATRHPPFTNTSASTSFAPYQRHRGSALQTSECTICFEKPVDPRGCPKCLKVIGCKKCVKKWFDTSASKACPLCRFEWKLHRDNPDVVKISTLEVLKRQKQNRP	not soluble
MSLVLYRKLKKAKSLEEIKNTFKNLTKSISSLVMRGMHFYDLSNILTEIYDYLVVKVIEMEKERFEREWGKLPSFAWVHMGSSARKEQVIATDQDNAIVHEGDGEGLSQFAESVNNALDYVGIPKCRGGYMAMNWCKSVEEWKSVFSEWFIKLTPDNLRFLSVFLDLRVIYGDEKLCKELIEHIKREHTSQSLRYLAYDATIAEPPLGLFGLRMKKEIDLKMNGIYPIVNGVRVLALEHGLIEVTNTRERLEELKEAHVMDADLAESLKETYEFLQDLRLRLQAKEVVEGKKADNVIKVSEIDRIEAFVLKEGFKVIKKFQNFLKGHYSIERGLEGHHHHHH	soluble
MGHHHHHHSHMRPDCDGWLLLRKAPGGFMGPRWRRRWFVLKGHTLYWYRQPQDEKAEGLINVSNYSLESGHDQKKKYVFQLTHDVYKPFIFAADTLTDLSMWVRHLITCIS	not soluble
MAHHHHHHMQTVPSFQKTTSFHCSKAGRVLYSFREASRISGTHLPIVSAVDSYTLDSVFSEEVRPSFKSFAVDPSDRYCAAILDQDIDSVIRLFSLSAGPYPDHGAFASPAVQEEQDSAMGADEEEMEQWSIEDDDYDTDDSTDSNDDEFEEDEDDDDDSYDEEDAEEEFEEWEEEDEEESSPGTGSGSDEQEGTQASSRHAN	soluble
MSLKLQASNVTNKNDPKSINSRVFIGNLNTALVKKSDVETIFSKYGRVAGCSVHKGYAFVQYSNERHARAAVLGENGRVLAGQTLDINMAGEPKPDR	soluble

---

assayMethodText: soluble on expression in E. coli; label from the status in PepcDB or PDB records

sequenceString	soluble on expression in E. coli
FRELTEREEAVRESHQRISTILESITDAFFSLDHSWRFTYLNGEAERLLGRTRDDLLGKSIWEEFAAAVGTRFDVEYRRAVASGTTATFEEYYPPLACWFEVHAYPSRDGLSVFFQDIT	not soluble
MSELLTTYRPIKILLQLDPNLGNNSYNGRVKIDYEFTGETSEIKIQTSRDFQWTSVRLATFYDFNEGCPVYASVDCENYVHDAESEILTLPLGNPLTPETTENGFYIELEWTGPINPQGETTGLYAIDESTIEANMKDGNAHKVFPCYEGGVSAKFWLTVITDERTRVETNMDDAGHEEFEGRVKNNFLKEEELTIEDVYIYVTPIIDME	not soluble

---

assayMethodText: soluble on expression in E. coli; label from the status in PepcDB or PDB records

sequenceString	soluble on expression in E. coli
MNSALDFAFPATFPVKSSSVGGHRIASPGFSSRLRLCSLPPSSSIKAESCLKRDVHRQRSSLESMFCYDKPIPEEIIEEPVGLSMSEREIGDNQRCTCCEAKGALLCSTCSGTGLYVDSIMESQGIIVKVRCLGCGGSGNIMCKLCGGRGHVGH	not soluble
MAVNQDTLYVKGDRNVEVTKREVTLGDLVSMECSNRVILPHLKTMKVLKIPENGEKRYVISILKIIACIHEKYPGLEVQNLGETDLIVTYEMQKTPSK	soluble
MGSDKIHHHHHHMSLKELLKDRLSEEELKLVRRSFEIIGDVVIIEIPDEIMHHSRDIVEAILKRHKHVKTVLRKVGEVDGVYRVARYEPIYGEKTETVVREHGCRFLVDPTKAYYSVKLSGERERIARLVGEGERVLVMFAGVGPYPIVIAKLARPREVVGVELNPHAVEYFRQNVRLNKVEGVVKVIEGDVEEVVPQLSGQFDRVVMPAPYSAENFIHLLRGKVRRGGFVHYYTFDSQNEEKILPEKVRRKFEDEGLEVEVVKMRRCGNFAPYVNRYVLDLRVL	not soluble
TVPITSAKAAELPPGNYRLVVFELENFQGRRAEFSGECSNLADRGFDRVRSIIVSAGPWVAFEQSNFRGEMFILEKGEYPRWNTWSSSYRSDRLMSFRPIKMDAQEHKISLFEGANFKGNTIEIQGDDAPSLWVYGFSDRVGSVKVSSGTWVGYQYPGYRGYQYLLEPGDFRHWNEWGAFQPQMQSLRRLRDKQWHLEGSFPVLATEPPK	soluble
MMHKRDQDYWIFSAELRDAKVKDDQSSKPQIVTPLGISIKRILCTGTVTSKQGDDRMTRITVADPVGNFYVIGFSNGFNPEEKAMLDKVSVDDRIMVIGKISSYRNTEGNYLFSIRPELVSKIDDEAMKFWSLKAYYFAKRRYYAIREAQKSENPAAEILKESGYTMVEAEAAMNAINNFPNYDYQKLFELIEPAMSSIGSSGAIAEARSMILDYIKNNDLDGKGCRYEDIVVAAKNAGIDQSTVDEILNSLGSLGEIFEVSLKRYKFVDTP	not soluble
MSSQRWLWRNQHSVQTNIGSREKDLKITKTKKIKKKHERAYELLAEAAYSDPFAALGPFIDDGEGSLRVWMPGANKVELLVNGEPRVALERDGDSGFILKEQRDLHLTHYRLAVDWNGVEQIIDDPYQYHNIYQEYEHLHTPKDM	not soluble
MSLGSNPPTKILDFLFLGGVSDATNPEFLRRENIVTILNVSREEYWSVDKGITIHPFPLEDNAEENIRKFFSHTYRLLEAARSSASPARPPCVLVHSRYGISRSVTIVLAYLMRRNGWSLNDALQYVMCRRPHVEPNVGFMNVLLSFQRDMDPQKRDIQRNEGHHHHHH	not soluble

---

assayMethodText: soluble on expression in E. coli; label from the status in PepcDB or PDB records

sequenceString	soluble on expression in E. coli
ENRLVVIVLRGAMDGLDLVRPVGDPLFATYRPRLAQDGQKGEGGVIPLSEGFVLHPLLNGLSALWRKGELGFVHAVSTPYRDKRSHFDGQDMLEAGTGPDVPPGVARDGWLNRMLQAVPGLEAETAWAIGRDPLPLMEGEAPVRVWSPDLALDLSAQNRRLLEELYHEDPLFRDVGTEALELAAKLSHGAGGEGPRDAKKDLAAIDELAAFAASQLRGAARIAAFSLSGWDTHRNQAAAIRKPLLKLQRMLLQLQAELGPVWDRTAILAMTEFGRTARENGSAGTDHGTAGAMIMAGGAIRGGRVLGRWPGLDEAALYDRRDLMPTSDVRAWAAWTMRSLYGFDRELLERSVFPGIEMREDPGLVL	not soluble
MTHAPTTTPLRTAAKLLAAGAAALTLNSCAYDGIKVIVINMFQGEAQPFIDRYDLKEKVYIAGLSPDAPNLLCNYDGICQVTTGMGYANAAATLSALLYRSKLDLTQTYFVIAGIAGIDPGQGTVGSAAWARYAVDYGLSHEIDAREMPAAWPYGYFGIGTKGPGEKPPMNYRTEVFRLNEALLQRAYALSKPVTLEDSPEAIAFRKHYAYAPANQPPAVIQCDVASADTWWAGRNLGQRARDWTKTMTDGKGTYCTTAQEDNATLEVLARGARAGKVDFSRVALLRTGSDFDRPYDGQSAADGLVNYAQQGGFVPATHNLVNAAKPLLDDIVLRWPQWAQGVPANLEHHHHHH	not soluble

---

assayMethodText: soluble on expression in E. coli; label from the status in PepcDB or PDB records
readoutKind: soluble on expression in E. coli

sequenceString	result
MSLSMSLRDQLLKAGLVNEKQAKQATKQKQKQQRLEHKNQVDKDDSQRQAAEQAKAEKLARDQELNRQQQEKAEKKAKAAQIKQLIEGTRLPKLESDDYYNFVDAKKVKRIAVNDLIRDKLSRGSLAIVSYDGRYEIVPRDAAVKIQERDPRRVVLLNVQSQEPDEDDPYKDYVVPDDLMWEGGSHHHHHH	soluble
MSVTQIDLDDEALADVMRIAAVHTKKEAVNLAMRDYVERFRRIEALARSRE	soluble
